# STUDY TARGET: T1, CD66c (Cluster of Differentiation 66c) on cells (UniProt P40199 35-320, limits assumed)
# T1 construct: whole, on cells; also called CEACAM6; CEACAM 6
# T1 sequence (looked up): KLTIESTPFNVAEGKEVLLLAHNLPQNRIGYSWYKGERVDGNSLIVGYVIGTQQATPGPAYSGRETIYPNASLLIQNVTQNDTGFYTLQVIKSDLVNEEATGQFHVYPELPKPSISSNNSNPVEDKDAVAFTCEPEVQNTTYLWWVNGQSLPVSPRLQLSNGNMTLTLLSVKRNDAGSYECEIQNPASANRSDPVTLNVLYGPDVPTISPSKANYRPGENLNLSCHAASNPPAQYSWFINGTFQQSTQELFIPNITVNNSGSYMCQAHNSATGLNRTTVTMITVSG
# ASSAY NOTES: flow cytometry on CD66c-positive A549 cells, FITC anti-human IgG
RESULT TYPE: % (% gated × mean), against the chimeric antibody (%)
Expressed in %, but write only the number.

These recorded examples may help you get a feel for the data.
# BINDER, NUMERIC VALUE
measured = [
    ("recombinant humanized anti-CD66c antibody Protein ID 3010 (Vk7 + VH7) (antibody, human IgG1, V domains shown, also called #45) VH: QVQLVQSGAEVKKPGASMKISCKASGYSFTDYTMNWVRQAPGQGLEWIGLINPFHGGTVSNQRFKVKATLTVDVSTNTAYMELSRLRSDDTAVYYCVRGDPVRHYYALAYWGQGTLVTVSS VL: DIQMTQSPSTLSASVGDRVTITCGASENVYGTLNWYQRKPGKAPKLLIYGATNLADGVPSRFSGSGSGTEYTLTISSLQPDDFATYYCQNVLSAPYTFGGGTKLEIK", 85.8),
    ("anti-CD66c chimeric antibody 8F5 (antibody, human IgG1, V domains shown, also called chimeric 8F5; chi 8F5) VH: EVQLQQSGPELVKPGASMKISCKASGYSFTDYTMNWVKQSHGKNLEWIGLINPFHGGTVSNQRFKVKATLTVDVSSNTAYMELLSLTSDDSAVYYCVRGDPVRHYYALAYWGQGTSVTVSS VL: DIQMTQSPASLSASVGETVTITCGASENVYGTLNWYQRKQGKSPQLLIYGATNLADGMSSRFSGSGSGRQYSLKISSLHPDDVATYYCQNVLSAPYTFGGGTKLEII", 100),
]

Now examine the next entry.
# input Given the entry recombinant humanized anti-CD66c antibody Protein ID 3004 (Vk7 + VH5) (antibody, human IgG1, V domains shown, also called #41) VH: QVQLVQSGAEVKKPGASVKISCKASGYSFTDYTMNWVRQAHGQNLEWIGLINPFHGGTVSNQRFKVKATLTVDVSTNTAYMELSRLRSDDTAVYYCVRGDPVRHYYALAYWGQGTLVTVSS VL: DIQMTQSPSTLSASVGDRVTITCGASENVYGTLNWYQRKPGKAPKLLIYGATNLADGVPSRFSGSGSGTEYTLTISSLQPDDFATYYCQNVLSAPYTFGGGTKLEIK , report its measured % (% gated × mean), against the chimeric antibody.
# output 85
